tested on: Hepatitis B virus; experiment: Antiviral activity against Hepatitis B virus infected in human MS-G2 cells assessed as inhibition of surface antigen secretion at 10 ug/ml after 3 days by ELISA; type: functional; parameters: scale not given: the % may be the effect or the level left
quantity: Activity

What value of measured Activity is listed for COC1=C(OC)C(=O)[C@]23COc4c5c(cc(c42)[C@H](OC(=O)/C=C/c2ccccc2)[C@H](C)[C@H](C)CC3=C1)OCO5 [SCHIARISANRIN D] ?
<25%

What value of measured Activity is listed for COc1cc2c(c(OC)c1OC)-c1c(cc3c(c1O)OCO3)[C@@H](OC(=O)c1ccccc1)[C@H](C)[C@H](C)C2 [SCHIZARIN E] ?
<25%

What value of measured Activity is listed for CCCCCC(=O)O[C@@H]1c2cc3c(c(O)c2-c2c(cc(OC)c(OC)c2OC)C[C@@H](C)[C@H]1C)OCO3 [SCHIZARIN C] ?
<25%

What value of measured Activity is listed for "CC=C(C)C(=O)O[C@@H]1c2cc3c(c(O)c2-c2c(cc(OC)c(OC)c2OC)C[C@@H](C)[C@H]1C)OCO3" ?
<25%

What value of measured Activity is listed for CCC(C)C(=O)O[C@@H]1c2cc3c(c(O)c2-c2c(cc(OC)c(OC)c2OC)C[C@@H](C)[C@H]1C)OCO3 (stereo partly specified) [SCHIZARIN B] ?
42.6%

What value of measured Activity is listed for CCC(C)C(=O)O[C@H]1c2cc3c(c4c2C(C(=O)C(=O)OC)(CO4)/C(=C\C(=O)OC)C[C@@H](C)[C@H]1C)OCO3 (stereo partly specified) [TAIWANSCHIRIN A] ?
<25%

* * *

What Activity was measured for each of the following?
assay: Cytotoxicity against human MS-G2 cells at 20 ug/ml by AST method; format: cell-based
Your answer should be a plain number; it is taken to be in IU/L.

What value of measured Activity is listed for CCC(C)C(=O)O[C@H]1c2cc3c(c4c2C(C(=O)C(=O)OC)(CO4)/C(=C\C(=O)OC)C[C@@H](C)[C@H]1C)OCO3 (stereo partly drawn) ?
14.8

What value of measured Activity is listed for "COc1cc2c(c(OC)c1OC)-c1c(cc3c(c1O)OCO3)[C@@H](OC(=O)c1ccccc1)[C@H](C)[C@H](C)C2" ?
44.3

What value of measured Activity is listed for CCC(C)C(=O)O[C@@H]1c2cc3c(c(O)c2-c2c(cc(OC)c(OC)c2OC)C[C@@H](C)[C@H]1C)OCO3 (stereo partly drawn) ?
15.5

* * *

test: Cytotoxicity against human MS-G2 cells at 10 ug/ml by AST method; format: cell-based
What Activity was measured for each of the following?
Your answer should be a plain number; it is taken to be in IU/L.

What value of measured Activity is listed for "COc1cc2c(c(OC)c1OC)-c1c(cc3c(c1O)OCO3)[C@@H](OC(=O)c1ccccc1)[C@H](C)[C@H](C)C2" ?
20.2

What value of measured Activity is listed for CCC(C)C(=O)O[C@@H]1c2cc3c(c(O)c2-c2c(cc(OC)c(OC)c2OC)C[C@@H](C)[C@H]1C)OCO3 (stereo partly specified) ?
17.6

What value of measured Activity is listed for "COC1=C(OC)C(=O)[C@]23COc4c5c(cc(c42)[C@H](OC(=O)/C=C/c2ccccc2)[C@H](C)[C@H](C)CC3=C1)OCO5" ?
20.1

What value of measured Activity is listed for "CC=C(C)C(=O)O[C@@H]1c2cc3c(c(O)c2-c2c(cc(OC)c(OC)c2OC)C[C@@H](C)[C@H]1C)OCO3" ?
16.8

What value of measured Activity is listed for CCC(C)C(=O)O[C@H]1c2cc3c(c4c2C(C(=O)C(=O)OC)(CO4)/C(=C\C(=O)OC)C[C@@H](C)[C@H]1C)OCO3 (stereo partly specified) ?
14.1

What value of measured Activity is listed for "CCCCCC(=O)O[C@@H]1c2cc3c(c(O)c2-c2c(cc(OC)c(OC)c2OC)C[C@@H](C)[C@H]1C)OCO3" ?
16
